B1: ZNF263 (parent)
chain: QPKKLHLCPLCGKNFSNNSNLIRH

variants of: B1; assay: protein stability index of a GFP-peptide fusion (GPS, HEK-293T) (PSI 1-6); higher = more stable; details: c terminus: a fixed tail appended;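 also: lentivirally expressed fusions sorted by FACS into six bins by GFP to DsRed ratio, PSI derived from sequencing read proportions per bin multiplied by bin number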
Listed next: entries and their corresponding protein stability index.

>  <RESIDUES>
QPKKLHLCPLCFKNFSNNSNLIRH [G12F]

>  <protein stability index>
1.39

$$$$
>  <RESIDUES>
APKKLHLCPLCGKNFSNNSNLIRH [Q1A]

>  <protein stability index>
2.97

$$$$
>  <RESIDUES>
QPKKLHLCPLCGKNFSNNSNLISH [R23S]

>  <protein stability index>
2.78

$$$$
>  <RESIDUES>
QPCKLHLCPLCGKNFSNNSNLIRH [K3C]

>  <protein stability index>
2.32

$$$$
>  <RESIDUES>
QPKKLHLCPLCGKNFSNNSELIRH [N20E]

>  <protein stability index>
3.42

$$$$
>  <RESIDUES>
QPKKLHLCPLCYKNFSNNSNLIRH [G12Y]

>  <protein stability index>
2.68

$$$$
>  <RESIDUES>
QPKKLHLCPLCGKTFSNNSNLIRH [N14T]

>  <protein stability index>
2.97

$$$$
>  <RESIDUES>
QPKKLHLCPLCGKNSSNNSNLIRH [F15S]

>  <protein stability index>
2.19

$$$$
>  <RESIDUES>
QPKKLHLCPLCGKNFSNNSNLIHH [R23H]

>  <protein stability index>
2.56

$$$$
>  <RESIDUES>
QPKKLHDCPLCGKNFSNNSNLIRH [L7D]

>  <protein stability index>
2.1

$$$$
>  <RESIDUES>
QPKKEHLCPLCGKNFSNNSNLIRH [L5E]

>  <protein stability index>
2.64

$$$$
>  <RESIDUES>
QPKKLHLCRLCGKNFSNNSNLIRH [P9R]

>  <protein stability index>
2.25

$$$$
>  <RESIDUES>
QPKKLSLCPLCGKNFSNNSNLIRH [H6S]

>  <protein stability index>
1.71

$$$$
>  <RESIDUES>
QPKKWHLCPLCGKNFSNNSNLIRH [L5W]

>  <protein stability index>
2.74

$$$$
>  <RESIDUES>
QPKKLHLCPLCGKNFSFNSNLIRH [N17F]

>  <protein stability index>
2.06

$$$$
>  <RESIDUES>
QPKKLRLCPLCGKNFSNNSNLIRH [H6R]

>  <protein stability index>
2.32

$$$$
>  <RESIDUES>
QPKKLHLTPLCGKNFSNNSNLIRH [C8T]

>  <protein stability index>
3.03

$$$$
>  <RESIDUES>
QPKKLHLCPLCGKNFSNKSNLIRH [N18K]

>  <protein stability index>
2.31

$$$$
>  <RESIDUES>
QPKKLHLCPLCGKNFSNNSILIRH [N20I]

>  <protein stability index>
1.94

$$$$
